Origin of values: ChEMBL document CHEMBL4400508

Target protein (sequence): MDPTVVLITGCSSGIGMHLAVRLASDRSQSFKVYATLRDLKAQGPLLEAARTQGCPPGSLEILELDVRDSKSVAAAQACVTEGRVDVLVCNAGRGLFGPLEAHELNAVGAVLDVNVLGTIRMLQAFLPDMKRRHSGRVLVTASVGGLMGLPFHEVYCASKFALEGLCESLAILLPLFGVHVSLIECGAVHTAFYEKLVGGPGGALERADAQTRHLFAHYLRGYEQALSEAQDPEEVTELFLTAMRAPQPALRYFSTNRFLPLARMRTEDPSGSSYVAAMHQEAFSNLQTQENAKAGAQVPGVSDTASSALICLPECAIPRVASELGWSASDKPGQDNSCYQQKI
quantity: IC50 (µM)
Numbers only, in µM.

Asked: For O=C(c1ccc(-c2cccc(NS(=O)(=O)c3ccccc3OC(F)(F)F)c2)s1)c1cc(F)c(F)c(O)c1F , what is its reported IC50?
Given back: 1.76

----------
- testedTarget: AhR (aryl hydrocarbon receptor); CYP1 induction (Homo sapiens)
- Sequence (P35869 whole entry): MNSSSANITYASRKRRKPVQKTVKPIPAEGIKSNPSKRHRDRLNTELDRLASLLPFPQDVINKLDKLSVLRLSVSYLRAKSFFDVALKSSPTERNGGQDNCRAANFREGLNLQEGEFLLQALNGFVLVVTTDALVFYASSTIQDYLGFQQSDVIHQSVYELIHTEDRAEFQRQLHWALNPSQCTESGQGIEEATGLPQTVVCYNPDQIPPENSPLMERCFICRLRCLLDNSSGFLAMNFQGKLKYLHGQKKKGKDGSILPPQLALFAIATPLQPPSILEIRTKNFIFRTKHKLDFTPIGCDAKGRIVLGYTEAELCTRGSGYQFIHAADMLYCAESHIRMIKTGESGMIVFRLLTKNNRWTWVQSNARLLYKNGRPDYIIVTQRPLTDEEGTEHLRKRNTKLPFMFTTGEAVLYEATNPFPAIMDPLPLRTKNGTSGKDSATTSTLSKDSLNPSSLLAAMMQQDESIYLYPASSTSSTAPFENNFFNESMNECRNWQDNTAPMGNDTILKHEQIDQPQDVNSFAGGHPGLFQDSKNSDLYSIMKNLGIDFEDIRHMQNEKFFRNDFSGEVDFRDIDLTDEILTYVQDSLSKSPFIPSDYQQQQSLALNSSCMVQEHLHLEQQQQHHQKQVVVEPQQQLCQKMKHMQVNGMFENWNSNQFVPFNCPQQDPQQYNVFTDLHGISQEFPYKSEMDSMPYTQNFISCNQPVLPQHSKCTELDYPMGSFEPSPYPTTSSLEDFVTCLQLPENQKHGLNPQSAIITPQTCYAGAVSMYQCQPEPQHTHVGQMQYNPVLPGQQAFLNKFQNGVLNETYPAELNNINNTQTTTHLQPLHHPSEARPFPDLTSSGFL
- protocol: in vitro
- conditionsUsed: hepg2
- Description: Agonist activity at AhR in human HepG2 assessed as induction of CYP1 at 3.16 uM relative to control
quantity: activity at 3.16 µM

Asked: # lookup: activity at 3.16 µM of O=C(c1ccc(-c2cccc(NS(=O)(=O)c3ccccc3OC(F)(F)F)c2)s1)c1cc(F)c(F)c(O)c1F
Given back: < 5%

----------
- testedTarget: constitutive androstane receptor (NR1I3); CYP2 induction (Homo sapiens, UniProt Q14994)
- Sequence (Q14994 whole entry): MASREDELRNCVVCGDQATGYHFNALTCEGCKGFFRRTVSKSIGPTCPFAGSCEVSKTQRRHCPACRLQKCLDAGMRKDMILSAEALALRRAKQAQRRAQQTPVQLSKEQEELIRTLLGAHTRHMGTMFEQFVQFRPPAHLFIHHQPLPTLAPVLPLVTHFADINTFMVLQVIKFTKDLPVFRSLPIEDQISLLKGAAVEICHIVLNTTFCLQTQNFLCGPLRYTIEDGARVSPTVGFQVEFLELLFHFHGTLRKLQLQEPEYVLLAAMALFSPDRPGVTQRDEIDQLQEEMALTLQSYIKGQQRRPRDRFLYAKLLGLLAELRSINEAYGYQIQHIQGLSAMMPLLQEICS
- protocol: in vitro
- Description: Agonist activity at recombinant human constitutive androstane receptor assessed as induction of CYP2 at 3.16 uM relative to control
quantity: activity at 3.16 µM

Asked: Identify the measured activity at 3.16 µM of O=C(c1ccc(-c2cccc(NS(=O)(=O)c3ccccc3OC(F)(F)F)c2)s1)c1cc(F)c(F)c(O)c1F for constitutive androstane receptor (NR1I3); CYP2 induction (Homo sapiens, UniProt Q14994).
Given back: < 5%

----------
- protocol: in vitro
- conditionsUsed: human, s9
- Description: Half life in human liver S9 fraction in presence of NADPH, UDPGA, PAPS
Quick rule for you: half-life under 40 min gets criterion met, anything else gets criterion not met.

Previously resolved entries follow.
{"columns": ["structureNotation", "className"],
 "data": [
  ["O=C(c1ccc(-c2cccc(NS(=O)(=O)c3ccccc3)c2)s1)c1cccc(O)c1Cl", "criterion met"],
  ["Cc1cccc(S(=O)(=O)Nc2cccc(-c3ccc(C(=O)c4cc(F)c(F)c(O)c4F)s3)c2)c1", "criterion met"],
  ["O=C(c1ccc(-c2cccc(NS(=O)(=O)c3ccccc3C(F)(F)F)c2)s1)c1cc(F)c(F)c(O)c1F", "criterion not met"],
  ["O=C(c1ccc(-c2cccc(NS(=O)(=O)c3ccc(F)cc3)c2)s1)c1cc(F)c(F)c(O)c1F", "criterion met"],
  ["Cc1ccc(S(=O)(=O)Nc2cccc(-c3ccc(C(=O)c4cc(F)c(F)c(O)c4F)s3)c2)cc1", "criterion met"],
  ["O=C(c1ccc(-c2cccc(NS(=O)(=O)c3ccccc3OC(F)(F)F)c2)s1)c1cc(F)c(F)c(O)c1F", "criterion not met"],
  ["O=C(c1ccc(-c2cccc(NS(=O)(=O)c3cccc(Cl)c3)c2)s1)c1cc(F)c(F)c(O)c1F", "criterion not met"]
]}

Asked: Consider the compound O=C(c1ccc(-c2cccc(NS(=O)(=O)c3ccccc3)c2)s1)c1c(F)ccc(O)c1Cl . Is its half-life strictly less than 40 min?
Given back: criterion met
